Origin of values: ChEMBL document CHEMBL1629610

Tested on: Human betaherpesvirus 5
Experiment: Antiviral activity against Human cytomegalovirus AD169 infected in human foreskin fibroblast by plaque reduction assay
Assay type: functional, organism-based
Settings: Human betaherpesvirus 5, AD169
pEC50: −log10 of the molar value.

{"columns": ["CPD SMILES", "pEC50"],
 "data": [
  ["Nc1cc2c(=O)c(C(=O)O)cn(C3CC3)c2cc1N1CCN(c2ccccn2)CC1", 6.05]
]}

====

Assay: Cytotoxicity against human foreskin fibroblast after 5 days by MTT assay
Format: cell-based
Conditions: human foreskin fibroblasts (HFF)
Listing of entries alongside the reported CC50 at 120 h.

{"columns": ["CPD SMILES", "RELATION OPERATOR", "CC50 at 120 h [µM]"],
 "data": [
  ["Cn1cc(C(=O)O)c(=O)c2cc(N)c(N3CCN(c4ccccn4)CC3)cc21", "=", 54],
  ["Nc1nc2c(ncn2COC(CO)CO)c(=O)[nH]1", "=", 550],
  ["Nc1cc2c(=O)c(C(=O)O)cn(C3CC3)c2cc1N1CCN(c2ccccn2)CC1", "=", 431],
  ["Nc1cc2c(=O)c(C(=O)O)cn(C3CC3)c2cc1N1CCN(c2nc3ccccc3s2)CC1", "=", 4.5],
  ["CC(C)(C)n1cc(C(=O)O)c(=O)c2cc(N)c(N3CCN(c4ccccn4)CC3)cc21", "≥", 475]
]}
